target: pERK1/2 (Thr202/Tyr204), NCI-1H358 (KRAS G12C) (Homo sapiens, UniProt P01116, G12C); construct: pERK1/2 HTRF read-out; experiment: Assay of intracellular pERK1/2 (Thr202/Tyr204) phosphorylation in NCI-H358 cells (KRAS G12C); assay type: cell-based; conditions: pERK1/2, 2 days, read-out: NCI-H358 (KRAS G12C) IC50
Sequence (P01116 1-188 isoform P01116-2 G12C): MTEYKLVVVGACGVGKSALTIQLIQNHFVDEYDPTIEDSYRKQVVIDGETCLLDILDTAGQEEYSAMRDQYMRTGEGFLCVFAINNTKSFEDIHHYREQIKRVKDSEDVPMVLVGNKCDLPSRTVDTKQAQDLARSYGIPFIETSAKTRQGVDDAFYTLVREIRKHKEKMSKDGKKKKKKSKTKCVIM

- Molecule: "Cc1cc2[nH]ncc2c(-c2nc3c4c(nc(OC[C@@]56CCCN5C[C@H](F)C6)nc4c2F)N([C@H](C)c2cccnc2N)[C@@H](C2CC2)CO3)c1C(F)(F)F [Compound 390]"
  IC50: "11 nM"
- Molecule: "CC(c1cccnc1N)N1c2nc(OC[C@@]34CCCN3C[C@H](F)C4)nc3c(F)c(-c4c(C5CC5)c(Cl)cc5[nH]ncc45)nc(c23)OC[C@@H]1C (some centres unmarked) [Compound 332]"
  IC50: "0.4 nM"
- Molecule: "CC(c1cccnc1N)N1c2nc(OC[C@@]34CCCN3C[C@H](F)C4)nc3c(F)c(-c4ccc(F)c5sc(N)c(C(N)=O)c45)nc(c23)OC[C@@H]1C (some centres unmarked) [Compound 327]"
  IC50: "> 100 nM"
- Molecule: "Cc1c(F)c(N)cc(-c2nc3c4c(nc(OCC56CC(F)CN5CC(F)C6)nc4c2F)N(C(C)c2cccnc2N)CCO3)c1C(F)(F)F (single isomer, unassigned; diastereomer 2) [Compound 242]"
  IC50: "0.4 nM"
- Molecule: "CC(c1cc(F)cnc1N)N1c2nc(OC[C@@]34CCCN3C[C@H](F)C4)nc3c(F)c(-c4c5cn[nH]c5cc5cccc(F)c45)nc(c23)OC[C@@H]1C (some centres unmarked) [Compound 367]"
  IC50: "0.2 nM"

###

IC50 values for the molecules below.
Biological target: pERK1/2 (Thr202/Tyr204), PANC-1 (KRAS G121D) (Homo sapiens, UniProt P01116, G12D)
Construct: pERK1/2 HTRF read-out
Sequence (P01116 1-188 isoform P01116-2 G12D): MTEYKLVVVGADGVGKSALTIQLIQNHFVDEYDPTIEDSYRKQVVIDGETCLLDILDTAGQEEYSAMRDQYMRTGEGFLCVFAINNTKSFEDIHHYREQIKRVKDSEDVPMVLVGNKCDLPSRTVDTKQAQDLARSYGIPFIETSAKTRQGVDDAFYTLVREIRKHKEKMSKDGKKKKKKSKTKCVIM
Test: Assay of intracellular pERK1/2 (Thr202/Tyr204) phosphorylation in PANC-1 cells (KRAS G12D)
Format: cell-based
Details: pERK1/2, 2 days, read-out: PANC-1 (KRAS G12D) IC50
Source text: Example 2: Assay of intracellular pERK1/2 (Thr202/Tyr204)phosphorylation 1. […] Fluorescence ratio=fluorescence value665 nm/fluorescence value615 nm Inhibition rate (%)=100−((fluorescence ratio of compound well−fluorescence ratio of negative control well)/(fluorescence ratio of positive control well−fluorescence ratio of negative control well))×100 […]
Reported Endpoint: IC50 (nM)

- Molecule: "[2H]C([2H])(Oc1nc2c3c(nc(-c4cc(N)ccc4C(F)(F)F)c(F)c3n1)OCCN2C(C)c1cccnc1N)[C@@H]1C[C@@H](F)CN1C([2H])([2H])[2H] (some centres unmarked) [Compound 126]"
  Reported Endpoint: "IC50"
  Sign: ">"
  Measured Value: 100
- Molecule: "Cc1cc2[nH]ncc2c(-c2nc3c4c(nc(OC[C@@]56CCCN5C[C@H](F)C6)nc4c2F)N(C(C)c2cccnc2N)[C@@H]2COCC[C@H]2O3)c1C(F)(F)F (some centres unmarked) [Compound 392]"
  Reported Endpoint: "IC50"
  Sign: ">"
  Measured Value: 100
- Molecule: "[2H]C1([2H])CC[C@@]2(C([2H])([2H])Oc3nc4c5c(nc(-c6cc(O)cc(Cl)c6C6CC6)c(F)c5n3)OCCN4C(C)c3cccnc3N)C[C@@H](F)CN12 (single isomer, unassigned) [Compound 131]"
  Reported Endpoint: "IC50"
  Sign: "="
  Measured Value: 7
- Molecule: "[2H]C1([2H])Oc2nc(-c3cc(N)c(F)c(C)c3C(F)(F)F)c(F)c3nc(OC[C@@]45CCCN4C[C@H](F)C5)nc(c23)N(C(C)c2cccnc2N)C1([2H])[2H] (single isomer, unassigned) [Compound 199]"
  Reported Endpoint: "IC50"
  Sign: "="
  Measured Value: 1
- Molecule: "CC(c1cccnc1N)N1CCOc2nc(-c3cc(N)c(F)c(Cl)c3C3CC3)c(F)c3nc(OC[C@@]45CCCN4C[C@H](F)C5)nc1c23 (some centres unmarked) [Compound 232]"
  Reported Endpoint: "IC50"
  Sign: "="
  Measured Value: 5
- Molecule: "CC(c1cccnc1N)N1c2nc(OC[C@@]34CCCN3C[C@H](F)C4)nc3c(F)c(-c4ccc(F)c5sc(N)c(C#N)c45)nc(c23)OC[C@@H]1C (some centres unmarked) [Compound 328]"
  Reported Endpoint: "IC50"
  Sign: "="
  Measured Value: 0.8
- Molecule: "Cc1c(F)c(N)cc(-c2nc3c4c(nc(OC[C@@]56CCCN5C[C@H](F)C6)nc4c2F)N(C(C)c2cccnc2N)CCO3)c1Cl (some centres unmarked) [Compound 204]"
  Reported Endpoint: "IC50"
  Sign: "="
  Measured Value: 49
- Molecule: "Cc1nc(N)cc(-c2nc3c4c(nc(OC[C@@]56CCCN5C[C@H](F)C6)nc4c2F)N(C(C)c2cccnc2N)CCO3)c1C(F)(F)F (some centres unmarked) [Compound 83]"
  Reported Endpoint: "IC50"
  Sign: "="
  Measured Value: 29
- Molecule: "Cc1cc(Nc2nc3c4c(nc(OC[C@@]56CCCN5C[C@H](F)C6)nc4c2F)N(C(C)c2cccnc2N)CCO3)c(F)cc1C(F)(F)F (some centres unmarked) [Compound 162]"
  Reported Endpoint: "IC50"
  Sign: ">"
  Measured Value: 100
- Molecule: "Cc1cc(N)nc(-c2nc3c4c(nc(OC[C@@]56CCCN5C[C@H](F)C6)nc4c2F)N(C(C)c2cccnc2N)[C@@H](C)CO3)c1 (some centres unmarked) [Compound 329]"
  Reported Endpoint: "IC50"
  Sign: ">"
  Measured Value: 100
- Molecule: "Cc1cc(N)cc(-c2nc3c4c(nc(OC[C@@]56CCCN5C[C@H](F)C6)nc4c2F)N(C(C)c2cccnn2)CCO3)c1C(F)(F)F (some centres unmarked) [Compound 121]"
  Reported Endpoint: "IC50"
  Sign: ">"
  Measured Value: 100
- Molecule: "[2H]C([2H])(Oc1nc2c3c(nc(-c4cc(N)cc(C)c4C(F)(F)F)c(F)c3n1)OCCN2C(C)c1cccnc1N)[C@@H]1C[C@@H](F)CN1C([2H])([2H])[2H] (single isomer, unassigned) [Compound 133]"
  Reported Endpoint: "IC50"
  Sign: ">"
  Measured Value: 100
- Molecule: "CC(c1cccnc1N)N1c2nc(OC[C@@]34CCCN3C[C@H](F)C4)nc3c(F)c(-c4c(F)cc(F)c5sc(N)nc45)nc(c23)OC[C@@H]1C (some centres unmarked) [Compound 333]"
  Reported Endpoint: "IC50"
  Sign: "="
  Measured Value: 6
- Molecule: "CC(c1cccnc1N)N1c2nc(OC[C@@]34CCCN3C[C@H](F)C4)nc3c(F)c(-c4cc(N)cc(Cl)c4C(F)(F)F)nc(c23)OC[C@@H]1C (single isomer, unassigned) [Compound 270]"
  Reported Endpoint: "IC50"
  Sign: "="
  Measured Value: 0.3
- Molecule: "[2H]C1([2H])CC[C@@]2(COc3nc4c5c(nc(-c6cc(N)c(F)c(Cl)c6C(F)(F)F)c(F)c5n3)OC([2H])([2H])C([2H])([2H])N4[C@H](C)c3cccnc3N)C[C@@H](F)CN12 (single isomer, unassigned) [Compound 222]"
  Reported Endpoint: "IC50"
  Sign: "="
  Measured Value: 2
- Molecule: "[2H]C1([2H])CC[C@@]2(COc3nc4c5c(nc(-c6cc(N)c(F)c(Cl)c6C(F)(F)F)c(F)c5n3)OC([2H])([2H])C([2H])([2H])N4C(C)c3cccnc3N)C[C@@H](F)CN12 (single isomer, unassigned) [Compound 223]"
  Reported Endpoint: "IC50"
  Sign: "="
  Measured Value: 20
- Molecule: "Cc1c(C(F)(F)F)c(-c2nc3c4c(nc(OCC5(CN(C)CCO)CC5)nc4c2F)N(C(C)c2cccnc2N)[C@@H](C)CO3)c2cn[nH]c2c1F (some centres unmarked) [Compound 394]"
  Reported Endpoint: "IC50"
  Sign: "="
  Measured Value: 36
- Molecule: "[2H]C([2H])(Oc1nc2c3c(nc(-c4cc(N)cc(C)c4C(F)(F)F)c(F)c3n1)OCCN2C(C)c1cccnc1N)[C@@H]1C[C@@H](F)CN1C([2H])([2H])[2H] (some centres unmarked) [Compound 122]"
  Reported Endpoint: "IC50"
  Sign: "="
  Measured Value: 11
- Molecule: "CC(c1cccnc1N)N1CCOc2nc(-c3cc(O)cc4ccc(F)c(F)c34)c(F)c3nc(OC[C@@H]4CCCN4C)nc1c23 (single isomer, unassigned) [Compound 42]"
  Reported Endpoint: "IC50"
  Sign: "="
  Measured Value: 69
- Molecule: "Cc1c(F)c(N)cc(-c2nc3c4c(nc(OCC56CCCN5CC5(CC5)C6)nc4c2F)N(C(C)c2cccnc2N)CCO3)c1C(F)(F)F (centres unmarked) [Compound 218]"
  Reported Endpoint: "IC50"
  Sign: "="
  Measured Value: 4
